# Assayed system: Adenosine receptor A2a (Homo sapiens, UniProt P29274)
# Sequence (P29274 whole entry): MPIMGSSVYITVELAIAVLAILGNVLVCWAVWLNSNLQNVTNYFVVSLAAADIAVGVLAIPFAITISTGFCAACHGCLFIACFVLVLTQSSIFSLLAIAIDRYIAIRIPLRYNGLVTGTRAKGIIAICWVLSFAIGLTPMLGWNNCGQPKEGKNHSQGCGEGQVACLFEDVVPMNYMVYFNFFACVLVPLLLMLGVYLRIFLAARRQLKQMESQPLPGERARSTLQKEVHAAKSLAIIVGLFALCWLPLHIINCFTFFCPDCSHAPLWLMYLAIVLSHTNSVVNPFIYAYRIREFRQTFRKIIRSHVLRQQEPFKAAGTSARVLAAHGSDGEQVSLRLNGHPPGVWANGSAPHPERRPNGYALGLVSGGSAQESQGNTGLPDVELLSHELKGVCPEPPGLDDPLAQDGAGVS
Outcome measure: log10 Kd (log10 of the value in µM)
Parameter value (number): base-10 log of Kd in µM.

Recorded log10 Kd, per entry:
Compound | log10 Kd
O=c1cc(NCc2ccccc2)nc2ccccn12 | 2.12
O=C(NCc1ccccc1)c1ccc2nonc2c1 | 2.00

Item Oc1ncnc2[nH]ncc12 [ALLOPURINOL] has what recorded log10 Kd? 1.89

* * *

List of pKd tested on Adenosine receptor A2a (Homo sapiens, UniProt P29274).
Remember the convention: pKd equals -log10 of concentration in molar.

Recorded pKd, per entry:
Molecule | Observed
Fc1ccc(-c2nn3ccccc3c2-c2ccncc2)cc1 [GW434756X] | 5.05
CS(=O)(=O)c1ccc(C(=O)Nc2cccc(Cl)c2)cc1 | 4.87

Given the entry NC(=O)c1ncoc1-c1ccccc1 , what pKd was observed with Adenosine receptor A2a (Homo sapiens, UniProt P29274)? 4.50

Given the entry CC(C)n1ncc2cc(C(=O)NCc3ccco3)cnc21 , what pKd was observed with Adenosine receptor A2a (Homo sapiens, UniProt P29274)? 3.68

Given the entry O=C(Nc1ccccc1)Nc1ccccn1 , what pKd was observed with Adenosine receptor A2a (Homo sapiens, UniProt P29274)? 4.29

Given the entry O=C(Nc1n[nH]c2nc(-c3ccco3)c(Br)cc12)C1CC1 , what pKd was observed with Adenosine receptor A2a (Homo sapiens, UniProt P29274)? 6.25

Given the entry Nc1nsc(-c2ccccc2)n1 , what pKd was observed with Adenosine receptor A2a (Homo sapiens, UniProt P29274)? 3.86
